Value source: the supplement of paper PMC6555819

system: FXR:RXRa (NR concentration 270 nM, RXRa partner concentration 90 nM); test: PBM binding z-score (relative to random genomic background probes); higher = stronger binding; sequences stand for … in GC…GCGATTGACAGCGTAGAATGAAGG
measuredEndpoint: PBM binding z-score
One number for each entry.

// below: answered sequences
- entrySequence: "TAGCCTAGGTCAGATTGGGCCAGTATACGCTATA"
  PBM binding z-score: 2.65
- entrySequence: "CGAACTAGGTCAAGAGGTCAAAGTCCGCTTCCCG"
  PBM binding z-score: 7.13
- entrySequence: "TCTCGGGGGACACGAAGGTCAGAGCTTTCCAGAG"
  PBM binding z-score: 2.9

// each listed sequence needs a value for PBM binding z-score
1. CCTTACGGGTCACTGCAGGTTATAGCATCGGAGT
2. TGTCAAAGTTCAAAGGTAACGTCAGTATCCACAC
3. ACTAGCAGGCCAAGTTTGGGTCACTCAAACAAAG

[5.36, 7.51, 0.133]
